This listing pairs compounds with measured GI50.
System: OVCAR-8
Test: NCI tumour cell line growth inhibition, 48 h
Calls of active or inactive are those of the source. No stated cut-off is given here; in the data, active = GI50 up to about 1.1 µM and inactive = higher.
EXPERIMENTAL READOUT: GI50

COMPOUND	EXPERIMENTAL READOUT	EXPERIMENTAL VALUE
Cc1n[nH]c(=O)n1N1C(=O)c2ccccc2C1=O	GI50	> 100 µM (inactive)
COC(=O)C1=NN2c3ccccc3CN([C@@H](C)c3ccccc3)C(=O)[C@@H]2[C@H]1c1ccccc1	GI50	> 100 µM (inactive)
Cc1cc(CC(=O)NCCO)n(CCO)c(=O)c1	GI50	> 100 µM (inactive)
COC1=C2CC(C)CC(OC)C(O)C(C)/C=C(\C)C(OC(N)=O)C(OC)/C=C\C=C(/C)C(=O)NC(=C(/C=N/C(C)(C)C)C1=O)C2=O (stereo unspecified)	GI50	5 µM (inactive)
O=C(NCCCN(CCCCN(CCCNC(=O)C(F)(F)F)CCCc1ccccc1)CCCc1ccccc1)C(F)(F)F	GI50	1.74 µM (inactive)
O=C1Sc2ccccc2/C1=N/Nc1ccccc1[N+](=O)[O-]	GI50	56.4 µM (inactive)
COc1cc(O)cc(/C=C/c2ccc(O)cc2)c1	GI50	23.8 µM (inactive)
Cn1c2ccc([N+](=O)[O-])cc2c(=O)c2c(O)cc(O)cc21	GI50	13.2 µM (inactive)
CCCCCCCCCCCCCCCCC(=O)NCC(=O)NCC(=O)NC(Cc1ccccc1)C(=O)Oc1ccc([N+](=O)[O-])cc1 (stereo unspecified)	GI50	19.2 µM (inactive)
CCOc1nc(N)nc(C)c1/N=N/c1ccc(Cl)cc1	GI50	> 100 µM (inactive)
COC(=O)C(=O)C(C(C)=O)C(=O)NCc1ccc(OC)c(OC)c1 (stereo unspecified)	GI50	> 100 µM (inactive)
O=C(/N=C1/OC(CN2CCOCC2)CN1C(=O)Nc1ccccc1)Nc1ccccc1 (stereo unspecified)	GI50	> 100 µM (inactive)
O=C1c2ccccc2-c2nc(-c3cccnc3)cc3c2c1nc1ccccc13	GI50	> 100 µM (inactive)
CCOC(=O)C(CCSC)(CCSC)C(=O)OCC	GI50	> 100 µM (inactive)
CC1OC(n2cnc3c(N)nc(Cl)nc32)C(C)(O)C1O (stereo unspecified)	GI50	19.8 µM (inactive)
CC1(C)OC2OC(COC(=O)c3ccc(C#N)cc3)C3OC(C)(C)OC3C2O1 (stereo unspecified)	GI50	> 75 µM (inactive)
CC(=O)C1=C(C)N(c2ccccc2)C2(O)C3=C(C(=O)c4ccccc4C3=O)C(O)=CC12Cl (stereo unspecified)	GI50	4.08 µM (inactive)
CC1(C)C(=O)C(C)(C)C1=S	GI50	> 100 µM (inactive)
CC(C)(C)C1CC[C@H]2c3c([nH]c4ccc(Br)cc34)[C@H]3C(=O)N(c4ccccc4)C(=O)[C@H]3[C@H]2C1 (stereo partly specified)	GI50	3.49 µM (inactive)
Cc1ccccc1N/N=C1\C(=O)Nc2ccccc21	GI50	> 100 µM (inactive)
Cc1nc2ccc(Cl)cc2c2c1CCO2	GI50	99.5 µM (inactive)
CSc1cc(-c2cc3ccccc3o2)oc(=O)c1C#N	GI50	> 100 µM (inactive)
CC(=O)NC1C(OCC(=O)NCCNc2ccc([N+](=O)[O-])c3[nH]c4ccccc4c(=O)c23)C(O)C(CO)OC1(C)OCc1ccccc1 (stereo unspecified)	GI50	> 100 µM (inactive)
CC[C@@]1(O)C(=O)OCc2c1cc1n(c2=O)Cc2cc3c(NC(=O)CN)cccc3nc2-1	GI50	0.392 µM (active)
CSc1c(C#N)c(N)nc2c(/N=N\c3ccc(Br)cc3)c(N)nn12	GI50	5.85 µM (inactive)
CC(=O)NC(CCCCNC(=O)NCCCl)C(=O)NCc1ccccc1 (stereo unspecified)	GI50	> 100 µM (inactive)
Nc1ncnc2c1sc(=S)n2-c1ccccc1	GI50	> 100 µM (inactive)
Cc1cc(Nc2ccc(NS(C)(=O)=O)cc2)c2c(ccc3[nH]ccc32)n1	GI50	22.9 µM (inactive)
CC1=CC(C)C(O)C(C)/C=C\C(O)C/C=C(/C)C(=O)CC(O)C(C)\C=C/C=C\C=C/C(=O)NC2=C(O)C(=O)c3c(cc(C)c(O)c3C1=O)C2=O (stereo unspecified)	GI50	> 100 µM (inactive)
COC1(OC)CC2CCCCC2=C(C)N1S(=O)(=O)c1ccccc1 (stereo unspecified)	GI50	> 100 µM (inactive)
O=C(COc1ccc(Cl)c(Cl)c1)N(Cc1ccccc1)Cc1ccc[n+](Cc2ccc(Cl)cc2S(=O)(=O)F)c1	GI50	> 100 µM (inactive)
N#CC(NCCO)=C1C(=O)c2ccccc2C1=O	GI50	> 100 µM (inactive)
CCCOc1ccc(/C(Cl)=C(\C=O)c2ccc(OC)c(OC)c2)cc1OCCC	GI50	11.9 µM (inactive)
CC(=O)C1=C(C)N2C(=NC3=C(CCc4ccccc43)C2c2ccc(Cl)cc2)S1 (stereo unspecified)	GI50	> 100 µM (inactive)
O=C1NC2(CCCCC2)N=C2C(Cl)CCCC12Cl (stereo unspecified)	GI50	> 100 µM (inactive)
N#CC(C#N)=C(N)/C(C#N)=C/c1ccc2ccccc2n1	GI50	30.5 µM (inactive)
O=C1c2c(O)cc(O)cc2C(C2OC(CO)C(O)C(O)C2O)c2cc(CO)cc(O)c21 (stereo unspecified)	GI50	> 100 µM (inactive)
CCCCCCCCCCCNC=O	GI50	58.1 µM (inactive)
CN1CCN(c2ccc3[nH]c(-c4ccc5[nH]c(-c6ccc(N(C)CCCl)cc6)nc5c4)nc3c2)CC1	GI50	0.247 µM (active)
CCc1n[nH]c(=O)n1-c1ccc2ccccc2c1	GI50	> 100 µM (inactive)
CN(CCCNC(=O)c1nn(-c2ccccc2)c2c1Cc1ccccc1-2)CCCNC(=O)c1nn(-c2ccccc2)c2c1Cc1ccccc1-2	GI50	1.73 µM (inactive)
